This section presents variants with their documented enrichment ratio values.
B1: PhoQ; a variant is named by its letters at X, in order, P23837 (parent)
chain: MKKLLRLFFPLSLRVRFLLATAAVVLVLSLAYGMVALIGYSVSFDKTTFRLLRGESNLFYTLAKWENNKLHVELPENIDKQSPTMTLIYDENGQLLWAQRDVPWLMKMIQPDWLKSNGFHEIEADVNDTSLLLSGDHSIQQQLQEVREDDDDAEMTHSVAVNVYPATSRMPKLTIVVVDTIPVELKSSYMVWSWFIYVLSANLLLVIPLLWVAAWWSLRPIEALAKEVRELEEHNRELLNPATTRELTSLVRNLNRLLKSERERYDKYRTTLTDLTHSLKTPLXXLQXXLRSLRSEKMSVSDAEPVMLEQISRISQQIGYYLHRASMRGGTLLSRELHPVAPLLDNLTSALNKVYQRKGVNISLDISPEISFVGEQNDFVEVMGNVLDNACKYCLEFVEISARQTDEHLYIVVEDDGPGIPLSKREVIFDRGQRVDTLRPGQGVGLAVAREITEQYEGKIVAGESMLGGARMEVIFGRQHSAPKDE

Variants of: B1
Experiment: enrichment ratio after two sorts for PhoP signalling (ratio (wild type AVST 3.29)); higher = more functional
Conditions: with PhoP (E. coli)
Whole data set: some 140,000 sequences, median “enrichment ratio after two sorts for PhoP signalling” near 0, cut for the highest 2% near 11. The sample holds the highest values, similar sequences and a random draw of the others, so the mix is not that of the screen.

// below: answered variants
| Mutant id | enrichment ratio |
| --- | --- |
| TAFP | 0.47 |
| SPLI | ≤ 0.25 |
| QIHG | 2.32 |

The recorded enrichment ratio for MQRV is ≤ 0.25

Note to self: enrichment ratio recorded for QAYI was 8.06

The variant identified as QTYI registered its enrichment ratio at 12.9

Data point: KSTL ; enrichment ratio = ≤ 0.25

// AKAT : enrichment ratio value = 3.68

// enrichment ratio lookup, variant = FDYL , result: ≤ 0.25

Just so you know, measured enrichment ratio for QPWN came out at ≤ 0.25

The variant listed as EDGY shows enrichment ratio equal to ≤ 0.25

Entry under test: MQFS . Its enrichment ratio was 3.3

Record QLDF . Reported enrichment ratio: ≤ 0.25

Record NATL , field enrichment ratio: ≤ 0.25

Data point: TVTL ; enrichment ratio = 15.2
